Ref: the Human Domainome abundance scans (Beltran et al. 2025)

B1: Cold shock protein CspB, residues 1 to 66; numbered along this chain, P41016 (parent)
chain: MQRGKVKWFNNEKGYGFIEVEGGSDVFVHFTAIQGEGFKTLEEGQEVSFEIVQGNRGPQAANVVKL

# Variants of: B1
# Measurement Description: abundance fitness (aPCA) (normalised: wild type 0, dead -1); higher = more abundant; growth selection in yeast, the domain comes from the species named
# Assay Conditions: Bacillus caldolyticus
Readout Type: abundance fitness
Numbers only.

G44L    -0.076
E21M    -0.051
S24K    0.015
E12H    0.009
Q45W    -0.023
G35D    -0.004
E19L    0.019
F27Q    -0.208

// for each variant below, give its abundance fitness
1. T31K
2. F30M
3. S24Y
4. R3N
5. V28A

A:
1: -0.066; 2: -0.169; 3: -0.016; 4: -0.061; 5: -0.1

// for each variant below, give its abundance fitness
1. G23F
2. N10K
3. L41S

A:
-0.034
-0.038
-0.433

// for each variant below, give its abundance fitness
1. L41C
2. T31Q

A:
-0.121
-0.132

// for each variant below, give its abundance fitness
1. S24M
2. E36D
3. E42C
4. G4H

A:
1. -0.019
2. -0.019
3. -0.013
4. -0.409
